Reported values of protein stability index for individual entries
B1: CDC14A (parent)
chain: LWVQGDIFRSKLKNRPSSEGSINK

- Variants of: B1
- Assay comment: protein stability index of a GFP-peptide fusion (GPS, HEK-293T) (PSI 1-6); higher = more stable;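 further: lentivirally expressed fusions sorted by FACS into six bins by GFP to DsRed ratio, PSI derived from sequencing read proportions per bin multiplied by bin number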
- Recorded conditions: c terminus: a fixed tail appended
Assay endpoint: protein stability index

> print(dat)
    changes           assay.endpoint  numeric.result
 1      Q4W  protein stability index            1.82
 2     N23M  protein stability index            2.15
 3     N14G  protein stability index            2.24
 4      Q4S  protein stability index            3.29
 5     S17Y  protein stability index            2.08
 6     R15M  protein stability index            2.07
 7     P16W  protein stability index            1.74
 8     K11Q  protein stability index            2.33
 9      V3P  protein stability index            3.94
10     K13S  protein stability index            2.54
11     G20H  protein stability index            2.74
12      D6R  protein stability index             1.9
13     K11M  protein stability index            2.49
14     S21P  protein stability index            3.06
15     S10Q  protein stability index            3.37
16     G20F  protein stability index             2.3
17      F8I  protein stability index            2.62
18      R9W  protein stability index            1.88
19      F8V  protein stability index            3.06
20     E19G  protein stability index            2.24
21     L12V  protein stability index            2.36
22      V3H  protein stability index            1.99
23      R9I  protein stability index             2.4
24      F8N  protein stability index            3.01
25     L12Y  protein stability index            2.61
26     G20K  protein stability index            3.44
27     K11W  protein stability index            2.04
28      V3G  protein stability index            3.18
29     G20L  protein stability index            2.69
30     K24V  protein stability index            1.63
31     S21D  protein stability index            4.21
32     S10D  protein stability index            3.07
33      D6G  protein stability index            2.64
34      Q4C  protein stability index            2.46
35      I7H  protein stability index            3.37
36     K11H  protein stability index            2.69
37     S18K  protein stability index            2.59
38      D6F  protein stability index            1.58
39     N23W  protein stability index             2.8
40      F8H  protein stability index            2.97
41     K11P  protein stability index            3.22
42     G20I  protein stability index            2.61
43     S17V  protein stability index            2.47
44     N23I  protein stability index            2.15
45      V3Y  protein stability index            2.89
46     R15Q  protein stability index            3.09
